percentage of binding: recorded values
Biological target: T1, human BCMA on the cell membrane surface (H929 and RPMI8226 cells) (human, UniProt Q02223 1-184)
T1 construct: whole, on cells; also called BCMA antigen on the cell membrane surface; BCMA-expressing cell line H929
T1 sequence (looked up): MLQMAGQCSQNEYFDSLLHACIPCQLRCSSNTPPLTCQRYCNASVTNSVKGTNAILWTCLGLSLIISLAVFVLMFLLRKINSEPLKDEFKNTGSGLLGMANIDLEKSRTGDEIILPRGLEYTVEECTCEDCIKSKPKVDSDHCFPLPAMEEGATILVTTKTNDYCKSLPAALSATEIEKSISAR
Assay: flow cytometry on RPMI8226 cells, scFv-Fc
Answer in %, number only, no unit symbol.

{"binder": "B10.5 scFv-Fc (Fc fusion, also called mutant B10.5; not shown: Fc (scFv-Fc)) scFv: QVQLQQSGAEVKKPGSSVKVSCKASGGTFSKSAIHWVRQAPGQGLEWMGGVIPIFGTANYAQKFQGRVTITADESTSTAYMELSSLRSEDTAVYYCARGWYLDLWGRGTLVTVSSASTGGSSRSSSSGGGGSGGGGLPVLTQPPSASGTPGQRVTISCSGSSSNIGGYSVNWYQQFPGTAPKLLIYRNNQRPSGVPDRFSGSKSGASASLAISGLQSEDVADYYCAAWDDSLIGYVFGTGTQLTVL", "experimental-result": 58.2}

# evaluate next
## Task Give the measured percentage of binding of B10.4 scFv-Fc (Fc fusion, also called mutant B10.4; not shown: Fc (scFv-Fc)) scFv: QVQLQQSGAEVKKPGSSVKVSCKASGGTFSKSAIMWVRQAPGQGLEWMGGVIPIFGTANYAQKFQGRVTITADESTSTAYMELSSLRSEDTAVYYCARGWYLDLWGRGTLVTVSSASTGGSSRSSSSGGGGSGGGGLPVLTQPPSASGTPGQRVTISCSGSSNNIGGYSVNWYQQFPGTAPKLLIYRNNQRPSGVPDRFSGSKSGASFSLAISGLQFEDEADYYCARWDDSVIGWVLGTGTQLTVL .
## Result 57.5
